assay: NCI Yeast Anticancer Drug Screen. Data for the cln2 rad14 strain (AID 165);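 also: 0% = growth equal to vehicle treated cultures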; settings: S. cerevisiae cln2 rad14 strain, at 5.0 µM (retest, dose inferred, filed as 0.5), active compounds read high
Compounds without any hit were thinned out: in the full panel of roughly 79,000, 15% have a hit.
assayMetric: growth inhibition (%)
Value expressed in %; do not type the unit.

Item: COC(=O)C1=C(CS(=O)c2ccccc2[N+](=O)[O-])ON(C)C1c1ccccc1 (stereo unspecified) | growth inhibition: -4

Lookup result for O=C(Cc1ccccc1)NC(C(=O)c1ccccc1)c1ccccc1 (stereo unspecified) ; measured growth inhibition: 25

Quick note, growth inhibition for "COc1ccc(OC)c(/C=C/c2ccnc3ccccc23)c1" landed at -4

Per the records, this molecule ( "O=C1/C(=C/c2ccccc2)CCC/C1=C\c1ccc(O)c(CN2CCCCC2)c1" ) has growth inhibition equal to 18

Record "CC1=C(C(=O)Nc2cccc(C(F)(F)F)c2)C(c2ccccc2F)C(C(=O)Nc2cccc(C(F)(F)F)c2)=C(C)N1" . Reported growth inhibition: 21

Entry under test: "CCCCC1C(=S)N(c2ccccc2)N(c2ccccc2)C1=S" . Its growth inhibition was 0

====

experiment: NCI Yeast Anticancer Drug Screen. Data for the bub3 strain (AID 167); settings: S. cerevisiae bub3 mutant strain, at 50.0 µM (retest, dose inferred, filed as 5.0), active compounds read high
Compounds without any hit were thinned out: in the full panel of roughly 79,000, 15% have a hit.
assayMetric: growth inhibition (%)
Record the value in %, omitting the unit from your answer.

Entry "CCN(CC)c1ccc(/C=C2/C[N+](C)(C)C/C(=C/c3ccc(N(CC)CC)cc3)C2=O)cc1" — recorded growth inhibition = 80

Quick note, growth inhibition for "Cc1nn(C(=S)S)c(C)c1N=Nc1ccc(Br)cc1" landed at 98

// growth inhibition value for CN(Cc1cnc2nc(N[Si](C)(C)C)nc(N[Si](C)(C)C)c2n1)c1ccc(C(=O)NC(CCC(=O)O[Si](C)(C)C)C(=O)O[Si](C)(C)C)cc1 (stereo not given) : 90

Given item C=CC1(C)CCC2C(=CCC3C2(C)CC(O)C(O)C3(C)COC2OC(CO)C(O)C(O)C2O)C1 (stereo not given) , the value recorded as its growth inhibition is 99

Per the record, "Cc1ccc(O)c(C(c2ccc([N+](=O)[O-])cc2)c2cc(C)ccc2O)c1" has growth inhibition of 52

// growth inhibition lookup, compound = OC(Cc1ccc2ccccc2c1)CN1CCC(c2ccccc2)CC1 (stereo not given) , result: 96

Entry under test: O=C1C(=O)C(Cc2ccccc2)(c2ccccc2)C(=O)N1c1ccccc1 (stereo not given) . Its growth inhibition was 52

In plain terms, COC(=O)N1C2C=CC(=O)C(C=C2)N1C(=O)OC (stereo not given) has a documented growth inhibition of 34

For record CS(=O)(=O)n1c(C(O)c2ccccc2)nc2ccccc21 (stereo not given) the listed growth inhibition is 38

Entry "C[C@]12CC[C@H](O)C[C@@H]1CC[C@@H]1[C@@H]2CC[C@]2(C)C=CC[C@@H]12" , growth inhibition reported as 23

====

experiment: NCI Yeast Anticancer Drug Screen. Data for the bub3 strain (AID 167); settings: S. cerevisiae bub3 mutant strain, at 50.0 µM (retest, dose inferred, filed as 5.0)
This is part of a sample that, as a whole, favours compounds with a hit. Of some 79,000 tested, about 15% had one in any assay. Calls of active or inactive are those of the source. Cut-off read from the data, not from the text of the source: active = growth inhibition above about 70%; inactive = the rest.
Give your call using only these classes: True for active, False for inactive

## Input Recorded test outcome, item "Cc1cc(Nc2ccc(N=Nc3ccc(O)c4ncccc34)cc2)nc(C)n1"
## Output False

## Input I'd appreciate the recorded outcome for CCCC[N-]CC(O)C[NH-].O=C(O)CC(=O)O.[Pt+2] (centres undefined) from this test.
## Output False

## Input How was "O=C1c2ccccc2C(=O)N1CCn1ccc(NC(c2ccccc2)(c2ccccc2)c2ccccc2)nc1=O" classified in this test?
## Output False

## Input What is the recorded call for this molecule in the test? "C/C(=N\NC(=S)Nc1ccc([N+](=O)[O-])cc1)c1nc2ncccc2[nH]1"
## Output True

## Input Just curious, what result did "COP(=O)(OC)/C(=C/c1cn(C(c2ccccc2)(c2ccccc2)c2ccccc2)cn1)NC=O" get here?
## Output False

## Input For "CCOC(=O)c1c(SCC#N)n(-c2ccccc2)c(=S)n(-c2ccccc2)c1=O" , which call appears in the assay record?
## Output True

## Input Returns: the outcome recorded for "CCC(=S)N(C)O" in this assay.
## Output True

## Input # fetch the recorded call for "ClCc1ccc2ccc3ccc(CCl)nc3c2n1" here
## Output True

## Input Recorded test outcome, item CC1=CC(O)(c2nc3ccccc3s2)CC(C)(C)C1 (centres undefined)
## Output False

## Input Status in this test for "COc1ccccc1/C=C1\Sc2scc(-c3ccc(O)c(O)c3)[n+]2C1=O" ?
## Output True

## Input // param item: "Cc1ccc(S(=O)(=O)C(=S)Sc2ccccc2)cc1" ; yields the recorded call
## Output True

## Input Test call, this molecule: "COc1ccc(C(=O)O)c(-c2c(C(=O)O)ccc(OC)c2OC(C)=O)c1"
## Output False

## Input Recorded test outcome, item "CCCCCCCCCCCCCCCC(=O)N1CC[N+](C)(C)CC1"
## Output True

## Input Which result was noted for this molecule in the test: "CCCCCCCCCCn1cc[nH]c1=S"
## Output True

## Input Tell me the recorded outcome of this test for O=C(OCCCN1CCCC1)C(c1ccccc1)C1CCCCC1 (centres undefined) .
## Output True

## Input # outcome recorded in this test, key = "CCCC(=O)Oc1ccc(-c2ccccc2)cc1Br"
## Output True

## Input Recorded test outcome, item "CN(C)CCC(=O)N1C/C(=C\c2ccc(Cl)c(Cl)c2)C(=O)/C(=C/c2ccc(Cl)c(Cl)c2)C1"
## Output True

## Input Give the logged outcome of this assay for the following molecule: "OCCc1cccc2ccc3ccccc3c12"
## Output False

## Input Dear colleague, could you share the recorded outcome for "CN(C)c1ccc(/C=C2/Oc3ccc(Cl)cc3C2=O)cc1" when you have a moment?
## Output True

## Input Fill in: this test's call for CC(C(=O)N1C(=O)N(C(=O)C(C)C(O)c2ccccc2)C(c2ccccc2)C1c1ccccc1)C(O)c1ccccc1 (centres undefined) is ___
## Output True

## Input Please indicate how the test categorized "CCOC(=O)/C(=C\c1ccc(Br)cc1)C(C)=O" .
## Output True

## Input How did this test come out for "c1ccc2c(c1)[nH]c1c[n+]3c(c[n+]12)[nH]c1ccccc13" ?
## Output False

## Input Would you mind telling me which call this test gave "NC(=O)CCSC(=S)N1CCOCC1" ?
## Output False

## Input Each molecule tested received a call. Report the one for CCCC/C=C1\CCC(CN2CCCCC2)C1=O (centres undefined) .
## Output True
